Subject Of Test: Porcine ventricle myofibrils (ventricular myosin ATPase) (Sus scrofa, UniProt P79293)
Construct: Myofibrils from porcine cardiac muscle was isolated from the left ventricle of Yucatan minipigs; tissue Exemplar Genetics; host or cells: left ventricle of Yucatan minipigs, myofibrils prepared in house
Sequence (P79293 whole entry): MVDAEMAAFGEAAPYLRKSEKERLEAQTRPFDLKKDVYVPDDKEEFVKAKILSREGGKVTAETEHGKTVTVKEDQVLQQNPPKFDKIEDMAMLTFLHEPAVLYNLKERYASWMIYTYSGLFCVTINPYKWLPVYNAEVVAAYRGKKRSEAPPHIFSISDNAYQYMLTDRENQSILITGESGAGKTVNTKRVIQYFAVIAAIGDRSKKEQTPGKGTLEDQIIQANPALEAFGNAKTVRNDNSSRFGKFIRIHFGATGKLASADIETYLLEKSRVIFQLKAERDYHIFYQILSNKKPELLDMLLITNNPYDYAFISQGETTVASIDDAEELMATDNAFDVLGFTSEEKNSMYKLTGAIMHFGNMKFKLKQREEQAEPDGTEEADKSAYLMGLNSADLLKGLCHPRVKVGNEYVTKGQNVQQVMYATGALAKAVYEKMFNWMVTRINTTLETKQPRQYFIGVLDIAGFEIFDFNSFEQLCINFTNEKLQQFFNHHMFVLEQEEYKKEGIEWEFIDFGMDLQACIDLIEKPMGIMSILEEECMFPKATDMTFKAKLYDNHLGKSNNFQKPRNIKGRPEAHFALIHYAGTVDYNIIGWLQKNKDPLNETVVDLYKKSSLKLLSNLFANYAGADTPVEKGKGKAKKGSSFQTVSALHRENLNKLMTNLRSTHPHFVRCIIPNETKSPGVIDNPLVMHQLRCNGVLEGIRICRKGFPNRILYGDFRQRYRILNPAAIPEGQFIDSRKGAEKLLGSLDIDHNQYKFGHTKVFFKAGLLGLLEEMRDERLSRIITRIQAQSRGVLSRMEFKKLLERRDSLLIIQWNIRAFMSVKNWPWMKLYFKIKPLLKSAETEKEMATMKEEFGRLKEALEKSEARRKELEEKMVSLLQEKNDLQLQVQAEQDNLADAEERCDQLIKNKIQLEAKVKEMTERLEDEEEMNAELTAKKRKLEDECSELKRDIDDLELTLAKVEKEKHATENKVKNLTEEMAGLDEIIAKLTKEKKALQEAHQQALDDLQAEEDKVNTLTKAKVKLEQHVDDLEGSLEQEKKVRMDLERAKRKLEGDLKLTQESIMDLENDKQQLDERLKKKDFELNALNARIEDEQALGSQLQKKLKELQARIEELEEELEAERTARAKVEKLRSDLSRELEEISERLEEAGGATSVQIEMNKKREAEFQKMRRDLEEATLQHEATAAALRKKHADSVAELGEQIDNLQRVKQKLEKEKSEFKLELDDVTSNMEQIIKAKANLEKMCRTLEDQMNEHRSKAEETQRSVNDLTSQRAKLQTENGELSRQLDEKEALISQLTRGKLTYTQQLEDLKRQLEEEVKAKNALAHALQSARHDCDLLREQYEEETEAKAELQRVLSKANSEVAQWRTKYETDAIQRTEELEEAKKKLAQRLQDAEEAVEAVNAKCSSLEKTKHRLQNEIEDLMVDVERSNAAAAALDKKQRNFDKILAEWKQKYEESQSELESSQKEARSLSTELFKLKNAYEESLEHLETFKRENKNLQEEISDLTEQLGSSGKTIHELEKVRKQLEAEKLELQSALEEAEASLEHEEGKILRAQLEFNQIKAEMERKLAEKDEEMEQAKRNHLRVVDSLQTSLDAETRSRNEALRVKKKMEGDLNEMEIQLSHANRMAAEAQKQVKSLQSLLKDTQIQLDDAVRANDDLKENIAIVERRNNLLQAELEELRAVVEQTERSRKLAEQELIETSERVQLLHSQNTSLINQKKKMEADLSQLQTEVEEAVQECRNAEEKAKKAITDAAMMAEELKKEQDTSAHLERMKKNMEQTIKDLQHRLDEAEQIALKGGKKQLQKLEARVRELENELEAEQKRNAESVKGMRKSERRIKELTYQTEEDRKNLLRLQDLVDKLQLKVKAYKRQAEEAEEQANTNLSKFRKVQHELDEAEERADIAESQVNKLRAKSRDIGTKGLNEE
Experimental Protocol: Myofibril ATPase assay, porcine ventricle myofibrils
Type: biochemical, porcine (Yucatan minipigs)
Condition Details: porcine ventricle myofibrils; Y75 value
Readout Label: Ventricular EC25 (µM)

These recorded examples may help you get a feel for the data.
Request: Hi! What's the reported Ventricular EC25 for "C[C@H](NC(=O)Cc1c(C2CC2)c2cnccc2[nH]c1=O)c1ncc(C#N)cc1F" on Porcine ventricle myofibrils (ventricular myosin ATPase) (Sus scrofa, UniProt P79293)?
Response: 6.56

Request: Hi! What's the reported Ventricular EC25 for "C[C@@H](NC(=O)Cc1cc2c(C#N)nccc2[nH]c1=O)c1ccc(F)cn1" on Porcine ventricle myofibrils (ventricular myosin ATPase) (Sus scrofa, UniProt P79293)?
Response: 100.00

Request: Hi! What's the reported Ventricular EC25 for "Cc1nccc2[nH]c(=O)c(CC(=O)N[C@H](C)c3ccc(C#N)cc3F)c(F)c12" on Porcine ventricle myofibrils (ventricular myosin ATPase) (Sus scrofa, UniProt P79293)?
Response: 3.02

Request: Hi! What's the reported Ventricular EC25 for Cc1nccc2[nH]c(=O)c(CC(=O)N[C@@H](CO)c3ncc(F)cc3F)c(C)c12 (single isomer, unassigned) on Porcine ventricle myofibrils (ventricular myosin ATPase) (Sus scrofa, UniProt P79293)?
Response: 12.24

Request: Hi! What's the reported Ventricular EC25 for "Cc1nccc2[nH]c(=O)c(C(F)(F)C(=O)N[C@@H](C)c3ccc(F)cc3F)c(C)c12" on Porcine ventricle myofibrils (ventricular myosin ATPase) (Sus scrofa, UniProt P79293)?
Response: 1.12

Request: Hi! What's the reported Ventricular EC25 for Cc1nccc2[nH]c(=O)c([C@H](C)C(=O)N[C@H](C)c3ccc(C#N)cc3F)c(C)c12 (single isomer, unassigned) on Porcine ventricle myofibrils (ventricular myosin ATPase) (Sus scrofa, UniProt P79293)?
Response: 100.00

Request: Hi! What's the reported Ventricular EC25 for COc1ccccc1[C@@H](C)NC(=O)Cc1c(C)c2c(C)nccc2[nH]c1=O (single isomer, unassigned) on Porcine ventricle myofibrils (ventricular myosin ATPase) (Sus scrofa, UniProt P79293)?
Response: 100.00

Request: Hi! What's the reported Ventricular EC25 for "Cc1nncc2[nH]c(=O)c(CC(=O)N[C@@H](C)c3ncc(C#N)cc3F)cc12" on Porcine ventricle myofibrils (ventricular myosin ATPase) (Sus scrofa, UniProt P79293)?
Response: 100.00

Request: Hi! What's the reported Ventricular EC25 for Cc1cccc([C@H](CO)NC(=O)Cc2c(C)c3c(C)nccc3[nH]c2=O)c1 (single isomer, unassigned) on Porcine ventricle myofibrils (ventricular myosin ATPase) (Sus scrofa, UniProt P79293)?
Response: 100.00

Request: Hi! What's the reported Ventricular EC25 for "Cc1c(CC(=O)N[C@@H](CO)c2ncc(C#N)cc2F)c(=O)[nH]c2cnnc(C#N)c12" on Porcine ventricle myofibrils (ventricular myosin ATPase) (Sus scrofa, UniProt P79293)?
Response: 22.06

P: Cc1nccc2[nH]c(=O)c(C(F)(F)C(=O)N[C@H](C)c3cnc(C#N)cn3)c(C)c12 (single isomer, unassigned)
Q: C[C@@H](NC(=O)Cc1c(C2CC2)c2cnccc2[nH]c1=O)c1ccc(C#N)cn1
Request: Quick one: lower Ventricular EC25, P or Q ? State the label of the item chosen.
Response: P
(P: 4.50 µM, Q: 100.00 µM)

1: CC(C(=O)N[C@@H](C)c1ccc(F)cc1F)c1cc2c(C(F)(F)F)nccc2[nH]c1=O (single isomer, unassigned)
2: CNc1nccc2[nH]c(=O)c(CC(=O)N[C@@H](C)c3ccc(F)cc3F)c(C)c12
3: CCN(CC)c1nccc2[nH]c(=O)c(CC(=O)N[C@@H](C)c3ccc(F)cc3F)c(C)c12
Request: Exam item: list the entries in increasing order of Ventricular EC25. Answer format: the labels, in the requested order.
Response: 3, 2, 1
